TESTED ON: human cysLT2 receptor (Homo sapiens, UniProt Q9NS75)
Sequence (Q9NS75 whole entry): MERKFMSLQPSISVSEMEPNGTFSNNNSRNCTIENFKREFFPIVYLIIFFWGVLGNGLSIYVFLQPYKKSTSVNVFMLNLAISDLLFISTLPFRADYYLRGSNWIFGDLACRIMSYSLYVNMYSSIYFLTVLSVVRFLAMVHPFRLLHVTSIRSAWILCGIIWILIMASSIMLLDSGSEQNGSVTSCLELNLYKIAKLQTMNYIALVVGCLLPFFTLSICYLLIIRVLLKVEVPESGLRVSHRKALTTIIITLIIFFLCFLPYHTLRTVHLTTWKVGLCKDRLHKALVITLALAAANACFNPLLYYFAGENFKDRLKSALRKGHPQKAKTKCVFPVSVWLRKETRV
MEASUREMENT PROTOCOL: Effects of compounds on LTD4-induced increases in intracellular calcium levels, HEK293 cells expressing the human cysLT2 receptor
CONDITIONS: 100 nM LTD4, compound applied 30 minutes prior, read-out: IC50 (50% inhibitory concentration), LTD4-induced intracellular calcium influx
Method: The cells were incubated in the culture medium containing 7.5 μM Fura2-AM, 20 mM 2-[4-(2-hydroxyethyl)-1-piperazinyl]ethanesulfonic acid (HEPES) and 2.5 mM probenecid, at 37° C. for about 60 minutes. The Fura2-AM-loaded cells were washed once with assay buffer (Hank's buffer containing 20 mM HEPES), and the LTD4-induced intracellular calcium influx was measured using a FDSS2000 (manufactured by Hamamatsu Photonics K.K.). […]
pIC50: −log10 of the molar value.
MEASURED ATTRIBUTE: pIC50

Please review the entries below; each comes with its answer.
record_smiles=Cc1c(CCCC(=O)O)c2cccc(C#Cc3ccc(OCCCCc4c(F)c(F)c(F)c(F)c4F)cc3)c2n1CCCC(=O)O tested_on="human cysLT2 receptor (Homo sapiens, UniProt Q9NS75)" quantitative_result=8.55
record_smiles=Cc1c(Cl)cccc1CCCCOc1ccc(C#Cc2cccc3c(CC4(CC(=O)O)CC4)c(C)n(CC(=O)O)c23)cc1 tested_on="human cysLT2 receptor (Homo sapiens, UniProt Q9NS75)" quantitative_result=8.68

(I) Cc1c(F)cccc1CCCCOc1ccc(C#Cc2cccc3c(CC4(CC(=O)O)CC4)c(C)n(CC(=O)O)c23)cc1
(II) Cc1c(CCCC(=O)O)c2cccc(C#Cc3ccc(OCCCCc4cc(F)c(F)c(F)c4F)cc3)c2n1CC(=O)O
I or II : whose pIC50 is greater? Write down the label of the entry you select.
II
(II: 9.11, I: 8.54)

Values from patent US8115014B2
